B1: glmS ribozyme (parent)
chain: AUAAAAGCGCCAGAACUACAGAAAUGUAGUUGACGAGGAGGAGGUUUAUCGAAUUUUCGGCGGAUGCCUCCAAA

Variants of: B1
ASSAY DETAILS: kcat; higher = faster cleavage; RNA array
ASSAY CONTEXT: with glucosamine-6-phosphate
Variants at the floor of the assay were thinned out.
Please enter met where kcat is greater than or equal to 0.0002 s⁻¹, and not met where it is lower.

G51C U54C ... not met
A48C C68G ... not met
G62C U69C ... not met
G62C C70U ... not met
U30G C50U ... not met
G51U C68U ... not met
A33G C71A ... not met
G40U C71G ... met
G29C G40C ... not met
C16G U45A ... met
G40U U56C ... not met
U45C U57C ... not met
A39C G66C ... met
G7U C71G ... not met
A52U U55G ... met
A14C G29A A53U G59A C68U ... not met
C61G C67A ... not met
U49A C67U ... not met
G37A G43U ... not met
A14G A42C ... not met
A15C U54C ... met
